These entries and their values trace back to ChEMBL document CHEMBL2321751.

Test system: Trypanosoma brucei brucei
Test: Antitrypanosomal activity against blood stream stage of Trypanosoma brucei brucei after 48 hrs by Cell Titre Glo assay
Assay type: functional, organism-based
pEC50: −log10 of the molar value.
Assign satisfied whenever pEC50 does not fall below 6; assign not satisfied whenever it does.

{"Smiles representation": "O=C(Nc1nc(-c2ccc(F)cc2)cs1)c1cc([N+](=O)[O-])ccc1Cl", "Group label": "satisfied"}
{"Smiles representation": "COc1ccc(OC)c(-c2csc(NC(=O)c3cc([N+](=O)[O-])ccc3Cl)n2)c1", "Group label": "not satisfied"}
{"Smiles representation": "O=C(Nc1ccc2oc(-c3ccccc3Cl)nc2c1)c1cc([N+](=O)[O-])ccc1Cl", "Group label": "not satisfied"}
{"Smiles representation": "O=C(Nc1cccc(-c2nc3ncccc3o2)c1)c1cc([N+](=O)[O-])ccc1Cl", "Group label": "not satisfied"}
{"Smiles representation": "O=C(Nc1cccc(Br)c1)c1cc([N+](=O)[O-])ccc1Cl", "Group label": "not satisfied"}
{"Smiles representation": "O=C(Nc1cc(C(F)(F)F)ccc1Cl)c1cc([N+](=O)[O-])ccc1Cl", "Group label": "satisfied"}
{"Smiles representation": "O=C(Nc1ccc2oc(-c3ccccc3)nc2c1)c1cc([N+](=O)[O-])ccc1Cl", "Group label": "not satisfied"}

Kindly review the next compound as well.
Reported pEC50 at or above 6? O=C(Nc1ccc2oc(-c3ccc(F)cc3)nc2c1)c1cc([N+](=O)[O-])ccc1Cl satisfied
